Target sequence: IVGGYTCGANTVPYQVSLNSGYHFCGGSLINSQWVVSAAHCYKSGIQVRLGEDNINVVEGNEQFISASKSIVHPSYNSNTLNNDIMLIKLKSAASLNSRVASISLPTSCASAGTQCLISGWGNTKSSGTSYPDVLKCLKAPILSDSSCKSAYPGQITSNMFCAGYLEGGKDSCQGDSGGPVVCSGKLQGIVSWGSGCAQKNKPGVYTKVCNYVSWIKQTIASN
Where a name gives a salt, the structure may show the parent alone.
The following molecules are shown together with reported IC50 values.
// return numeric value only (unit: µM, not printed)

Below are worked cases with known answers.
CC1CCC(NC(=O)[C@H](Cc2ccccc2)NC(=O)c2ccc(NC(=N)N)cc2)CC1C (stereo partly drawn) : 6
COc1ccc(NC(=O)[C@H](Cc2ccccc2)NC(=O)c2ccc(NC(=N)N)cc2)cn1 : 35
Cc1ccc(NC(=O)[C@H](Cc2ccccc2)NC(=O)c2ccc(NC(=N)N)cc2)cc1 [compound 13, hydrochloride] : 1.3

Any idea what its IC50 is? The molecule is Cc1ccc(NC(=O)[C@H](Cc2ccc(OCc3ccccc3)cc2)NC(=O)c2ccc(NC(=N)N)cc2)cc1C
9.1

Any idea what its IC50 is? The molecule is N=C(N)NCCCC(=O)N[C@@H](Cc1ccc([N+](=O)[O-])cc1)C(=O)Nc1ccc(C(=O)c2ccccc2)cc1
17

Any idea what its IC50 is? The molecule is COc1ccc(NC(=O)[C@H](Cc2ccc(OCc3ccccc3)cc2)NC(=O)c2ccc(NC(=N)N)cc2)cn1
17

Origin of measurements: patent EP0298135A1
